For each entry below, report its IC50 value.
Test target: human TLR9 (Homo sapiens, UniProt Q9NR96)
Sequence (Q9NR96 26-1032): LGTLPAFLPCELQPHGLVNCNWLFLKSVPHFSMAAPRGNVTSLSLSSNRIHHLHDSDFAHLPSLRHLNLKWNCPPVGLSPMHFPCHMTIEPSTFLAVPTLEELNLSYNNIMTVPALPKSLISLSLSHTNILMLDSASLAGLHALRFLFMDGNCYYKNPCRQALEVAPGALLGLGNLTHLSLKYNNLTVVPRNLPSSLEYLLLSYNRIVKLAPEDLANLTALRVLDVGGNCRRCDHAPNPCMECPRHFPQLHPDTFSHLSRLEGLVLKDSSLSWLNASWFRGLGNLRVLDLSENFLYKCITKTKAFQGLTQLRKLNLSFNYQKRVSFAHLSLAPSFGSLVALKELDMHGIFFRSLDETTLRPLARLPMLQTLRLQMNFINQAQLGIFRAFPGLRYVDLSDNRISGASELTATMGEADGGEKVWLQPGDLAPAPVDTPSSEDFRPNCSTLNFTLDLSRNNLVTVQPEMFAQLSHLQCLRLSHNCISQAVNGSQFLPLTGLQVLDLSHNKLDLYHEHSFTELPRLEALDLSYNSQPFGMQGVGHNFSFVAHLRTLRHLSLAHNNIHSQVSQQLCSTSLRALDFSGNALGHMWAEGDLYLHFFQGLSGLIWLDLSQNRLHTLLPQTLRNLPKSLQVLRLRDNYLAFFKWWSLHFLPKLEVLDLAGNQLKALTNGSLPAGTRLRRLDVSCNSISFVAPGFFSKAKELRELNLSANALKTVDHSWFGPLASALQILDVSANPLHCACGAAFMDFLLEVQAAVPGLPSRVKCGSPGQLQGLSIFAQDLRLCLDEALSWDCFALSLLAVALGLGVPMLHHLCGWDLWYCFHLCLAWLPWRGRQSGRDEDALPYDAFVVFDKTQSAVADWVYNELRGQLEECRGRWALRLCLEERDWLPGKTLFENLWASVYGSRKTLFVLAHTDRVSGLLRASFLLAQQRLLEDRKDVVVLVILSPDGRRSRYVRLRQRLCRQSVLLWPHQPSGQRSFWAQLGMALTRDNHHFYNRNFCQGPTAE
Assay procedure: TLR9 inhibition reporter assay (HEK-Blue cells, SEAP reporter, ODN2006 stimulation)
Test parameters: HEK-Blue cells overexpressing human TLR9, SEAP reporter, ODN2006 5 nM

Worked cases, answers included:
>>> print(df.to_string())
                                   compound    result
0  Cc1cc(-c2[nH]c3ccc(C4CCC(C(=O)N5CCOCC5)CC4)cc3c2C(C)C)cn2ncnc12 (centres unmarked) [Example 161]    4.8 µM
1  COc1cc(-c2[nH]c3ccc(C4CC5CN(C6COC6)CC5C4)cc3c2C(C)C)cn2ncnc12 (centres unmarked) [Example 513]   12.5 µM
2  CN[C@@H](C)C(=O)N1CCCC(c2ccc3[nH]c(-c4cc(C)nc(C)c4)c(C(C)C)c3c2)C1 (some centres unmarked) [Example 219]  0.519 µM
3  Cc1c(-c2[nH]c3ccc(CC4CNC4)cc3c2C(C)C)cn2ncnc2c1C [Example 399]   1.96 µM
4  COc1ccc(-c2[nH]c3ccc(C4CCC5CC(C4)N5)cc3c2C(C)C)cc1OC (centres unmarked) [Example 279]   3.13 µM

Give one value of IC50 per listed compound.
1. CCc1c(-c2ccc(OC)c(OC)c2)[nH]c2ccc(CN3CCNCC3)cc12 [Example 390]
2. Cc1cc(-c2[nH]c3ccc([C@@H]4C[C@H]4CN4CCCC4)cc3c2C(C)C)ccn1 [Example 464]
3. COc1cc(-c2[nH]c3ccc(C4CCC(NC(=O)CC(F)(F)F)CC4)cc3c2C(C)C)cn2ncnc12 (centres unmarked) [Example 118]

1: 5.88 µM; 2: 0.271 µM; 3: 15.6 µM
